# assay.procedure: GST activity of purified recombinant protein toward acetochlor
# Assay type: biochemical
# condition.notes: thiol GSH; recombinant enzyme; ±SE, n=2
endpoint.name: GST activity toward acetochlor, GSH (pkat mg-1)

molecule="GST 3.3: Recombinant soybean Glutathione-S-transferase 3.3, SEQ ID No. 10; may also be referred to as GST 3.6 (protein, Glycine max) MAERDLRLLGAWFSPFALRVQIALNLKGLDYEVVEETLNPKSELLLKSNPVHKKIPVFFHGDKVICESAIIVEYIDEVWSNNALSILPQNAYDRANARFWVSYIDDKWLTSLKSVLATEDDEAKKLHFEQAEEVLEKVEEVFNKCSEGKAYFGGDTIGFVDIGFGSFLSFIRVSENMNERKLLDETKYPGLTLWAETFAADPAVKGLLPETEKLVEFAKILQLKWAAAAAAK" endpoint_name="GST activity toward acetochlor, GSH" measurement=420.0
